pIC50: recorded values
- System: HepG2
- assayRemarks: Cytotoxicity against human HepG2 cells after 72 hrs by SRB assay
- Format: functional, cell-based
- measurementContext: HepG2, 72 h
When answering, recall that pIC50 equals minus log10 of the concentration in mol/L, and write that number alone.

A selection of reference data follows.
C/C=C(\C)C(=O)C1=C2C3=CN(CCO)C(/C=C/[C@@H](C)CC)=CC3=C(Cl)C(=O)[C@@]2(C)OC1=O ... 4.70
CC[C@H](C)/C=C/C1=CC2=C(Cl)C(=O)[C@@]3(C)OC(=O)C(C(=O)[C@H](C)[C@@H](C)O)=C3C2=CN1CCO ... 4.27
CC[C@H](C)/C=C/C1=CC2=C(Cl)C(=O)[C@@]3(C)OC(=O)C(C(=O)[C@H](C)[C@@H](C)O)=C3C2=CO1 ... 4.45

*Q* Fill in the blank: the reported pIC50 of CC[C@@]1(O)C(=O)OCc2c1cc1n(c2=O)Cc2cc3ccccc3nc2-1 [CAMPTOTHECIN] is ____.
*A* 4.49

*Q* Another molecule to look at: `C/C=C(\C)C(=O)C1=C2C3=CN(CCCC(=O)O)C(/C=C/[C@@H](C)CC)=CC3=C(Cl)C(=O)[C@@]2(C)OC1=O`
*A* 5.77

*Q* Next: C/C=C(\C)C(=O)C1=C2C3=COC(/C=C/[C@@H](C)CC)=CC3=C(Cl)C(=O)[C@@]2(C)OC1=O [CHAETOVIRIDIN E]
*A* 4.39
